subject_of_test: PRKCB1 (human)
run_description: radiometric filter-binding kinase assay, Kinase HotSpot
details: compound 0.5 µM; ATP 10 µM
Parameter residual activity: see the listing below.
// units = %; emit number, no label

Sample records with residual activity:
| smiles_entry | residual activity, % |
| --- | --- |
| CC(C)n1cnc2c(Nc3cccc(Cl)c3)nc(NCCO)nc21 | 102 |
| C#Cc1cccc(Nc2ncnc3cc(OCCOC)c(OCCOC)cc23)c1 | 92.4 |
| Nc1n[nH]c2nnc(-c3c(-c4ccccc4)nn4ccccc34)cc12 | 96.5 |
| O=C1Nc2cc(Br)ccc2/C1=C1/Nc2ccccc2/C1=N\O | 98.5 |
| CCCNC(=O)Nc1ccc(Oc2ncnc3cc(OC)c(OC)cc23)cc1Cl | 100 |

residual activity of Nc1nc(Nc2ccc(S(N)(=O)=O)cc2)nn1C(=S)Nc1c(F)cccc1F on PRKCB1 (human)?
75.2

Consider next the molecule Nc1nc(Nc2ccc(S(N)(=O)=O)cc2)nn1C(=O)c1c(F)cccc1F in the same way.
88.2

Consider next the molecule O=C1Nc2ccccc2/C1=C\c1c(Cl)[nH]c2ccccc12 in the same way.
105

====

Parameter residual activity: see the listing below.
subject_of_test: TBK1 (human)
run_description: radiometric filter-binding kinase assay, Kinase HotSpot
details: compound 0.5 µM; ATP 10 µM
// units = %; emit number, no label

| compound | subject_of_test | residual activity / % |
| --- | --- | --- |
| CCN1/C(=C/C(C)=O)Sc2ccc(OC)cc21 | TBK1 (human) | 94.5 |
| CCCNC(=O)Nc1ccc(Oc2ncnc3cc(OC)c(OC)cc23)cc1Cl | TBK1 (human) | 90 |
| Cc1ccc(NC(=O)c2ccc(CN3CCN(C)CC3)cc2)cc1Nc1nc(-c2cccnc2)cs1 | TBK1 (human) | 97 |
| O=C1Nc2cc(Br)ccc2/C1=C1/Nc2ccccc2/C1=N\O | TBK1 (human) | 62.1 |
| COc1cc2ncnc(Nc3ccc(F)c(Cl)c3)c2cc1OCCCN1CCOCC1 | TBK1 (human) | 83.1 |
| COc1ccc(-c2cnc3c(-c4ccsc4)cnn3c2)cc1 | TBK1 (human) | 77.7 |

residual activity of O=C1Nc2ccccc2/C1=C\c1c(Cl)[nH]c2ccccc12 on TBK1 (human)?
95.9

Consider next the compound NC(=O)c1ccc(N(C(N)=O)c2c(F)cccc2F)nc1-c1ccc(F)cc1F in the same way.
106

Consider next the compound CSc1nc(-c2ccc(F)cc2)c(-c2ccnc(NC(C)c3ccccc3)c2)[nH]1 (configuration not stated) in the same way.
92

Consider next the compound CC(C)(C)c1nc2c3ccc(F)cc3c3c(=O)[nH]ccc3c2[nH]1 in the same way.
24

====

subject_of_test: DSTYK (human)
run_description: radiometric filter-binding kinase assay, Kinase HotSpot
details: compound 0.5 µM; ATP 10 µM
quantity: residual activity (%)
// units = %; emit number, no label

Sample records with residual activity:
| compound | subject_of_test | quantity | numeric_value |
| --- | --- | --- | --- |
| Oc1ccc(-c2nc(-c3ccc(F)cc3)c(-c3ccncc3)[nH]2)cc1 | DSTYK (human) | residual activity | 100 |
| CC(C)(C)c1nc2c3ccc(F)cc3c3c(=O)[nH]ccc3c2[nH]1 | DSTYK (human) | residual activity | 62 |
| O=C1Nc2ccccc2/C1=C\c1c(Cl)[nH]c2ccccc12 | DSTYK (human) | residual activity | 95.7 |
| NC(=O)c1ccc(N(C(N)=O)c2c(F)cccc2F)nc1-c1ccc(F)cc1F | DSTYK (human) | residual activity | 101 |
| C#Cc1cccc(Nc2ncnc3cc(OCCOC)c(OCCOC)cc23)c1 | DSTYK (human) | residual activity | 107 |
| CSc1nc(-c2ccc(F)cc2)c(-c2ccnc(NC(C)c3ccccc3)c2)[nH]1 (configuration not stated) | DSTYK (human) | residual activity | 102 |

Using the record for O=C1Nc2cc(Br)ccc2/C1=C1/Nc2ccccc2/C1=N\O , report its residual activity.
102

Consider next the compound Cc1ccc(NC(=O)c2ccc(CN3CCN(C)CC3)cc2)cc1Nc1nc(-c2cccnc2)cs1 in the same way.
92.4

Consider next the compound O=C1Cc2c([nH]c3ccc([N+](=O)[O-])cc23)-c2ccccc2N1 in the same way.
90

Consider next the compound Nc1nc(Nc2ccc(S(N)(=O)=O)cc2)nn1C(=S)Nc1c(F)cccc1F in the same way.
17.8

Consider next the compound COc1ccc(-c2cnc3c(-c4ccsc4)cnn3c2)cc1 in the same way.
97.6

Consider next the compound COc1cc2nccc(Oc3ccc(NC(=S)NC(=O)c4ccccc4C)cc3)c2cc1OC in the same way.
112

====

Parameter residual activity: see the listing below.
subject_of_test: BLK (human) (UniProt P51451)
Sequence (P51451 whole entry, looked up): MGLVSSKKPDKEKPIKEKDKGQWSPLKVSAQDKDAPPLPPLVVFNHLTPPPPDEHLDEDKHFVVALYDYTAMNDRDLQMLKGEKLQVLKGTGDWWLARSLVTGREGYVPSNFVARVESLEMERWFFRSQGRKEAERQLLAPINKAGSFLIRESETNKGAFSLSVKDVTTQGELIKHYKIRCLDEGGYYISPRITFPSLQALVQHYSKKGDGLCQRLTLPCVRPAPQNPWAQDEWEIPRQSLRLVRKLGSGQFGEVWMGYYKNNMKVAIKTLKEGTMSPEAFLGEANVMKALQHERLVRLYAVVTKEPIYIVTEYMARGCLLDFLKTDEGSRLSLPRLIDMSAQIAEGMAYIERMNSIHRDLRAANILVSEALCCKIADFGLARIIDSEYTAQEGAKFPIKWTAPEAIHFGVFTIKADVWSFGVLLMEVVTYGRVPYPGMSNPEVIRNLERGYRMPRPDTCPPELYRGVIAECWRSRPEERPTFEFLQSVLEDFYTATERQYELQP
run_description: radiometric filter-binding kinase assay, Kinase HotSpot
details: compound 0.5 µM; ATP 10 µM
// units = %; emit number, no label

| compound | unit_info | residual activity |
| --- | --- | --- |
| O=c1cc(N2CCNCC2)oc2c(-c3ccccc3)cccc12 | % | 122 |
| CCCNC(=O)Nc1ccc(Oc2ncnc3cc(OC)c(OC)cc23)cc1Cl | % | 96.8 |

Now for the compound whose residual activity we want.
residual activity of CCN1/C(=C/C(C)=O)Sc2ccc(OC)cc21 on BLK (human) (UniProt P51451)?
95.4

====

subject_of_test: EPHA7 (human) (UniProt Q15375)
Sequence (Q15375 whole entry, looked up): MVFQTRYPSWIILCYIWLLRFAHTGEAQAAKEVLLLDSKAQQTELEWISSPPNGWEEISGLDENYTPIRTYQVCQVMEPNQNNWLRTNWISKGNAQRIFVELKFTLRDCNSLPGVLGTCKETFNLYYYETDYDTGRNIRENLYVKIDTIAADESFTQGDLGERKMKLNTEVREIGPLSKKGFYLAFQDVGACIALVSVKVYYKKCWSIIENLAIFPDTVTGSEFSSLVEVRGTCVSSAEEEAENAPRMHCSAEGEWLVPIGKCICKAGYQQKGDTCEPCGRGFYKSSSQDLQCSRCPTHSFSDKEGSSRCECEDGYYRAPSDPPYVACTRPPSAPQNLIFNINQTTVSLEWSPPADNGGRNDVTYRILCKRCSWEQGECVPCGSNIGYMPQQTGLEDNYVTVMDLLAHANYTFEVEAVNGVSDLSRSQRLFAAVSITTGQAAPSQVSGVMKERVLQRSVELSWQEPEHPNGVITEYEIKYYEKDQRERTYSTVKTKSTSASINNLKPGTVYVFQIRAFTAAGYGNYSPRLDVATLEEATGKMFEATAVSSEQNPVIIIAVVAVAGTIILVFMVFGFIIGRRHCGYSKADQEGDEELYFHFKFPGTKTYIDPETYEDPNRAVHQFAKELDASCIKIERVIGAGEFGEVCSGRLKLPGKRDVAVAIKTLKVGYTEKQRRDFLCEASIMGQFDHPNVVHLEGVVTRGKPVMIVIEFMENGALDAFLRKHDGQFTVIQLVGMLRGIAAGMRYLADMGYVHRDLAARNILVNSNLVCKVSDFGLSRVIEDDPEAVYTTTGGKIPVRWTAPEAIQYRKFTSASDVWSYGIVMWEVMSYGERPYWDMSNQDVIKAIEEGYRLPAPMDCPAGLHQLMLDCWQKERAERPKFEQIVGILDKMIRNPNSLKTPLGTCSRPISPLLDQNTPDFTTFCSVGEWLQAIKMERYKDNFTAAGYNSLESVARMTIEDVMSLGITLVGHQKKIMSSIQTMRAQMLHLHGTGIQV
run_description: radiometric filter-binding kinase assay, Kinase HotSpot
details: compound 0.5 µM; ATP 10 µM
Parameter residual activity: see the listing below.
// units = %; emit number, no label

Sample records with residual activity:
| molecule | unit_info | residual activity |
| --- | --- | --- |
| CSc1nc(-c2ccc(F)cc2)c(-c2ccnc(NC(C)c3ccccc3)c2)[nH]1 (stereo not given) | % | 102 |
| Cc1cc2ncc(-c3ccccc3)nc2cc1C | % | 96.6 |
| CS(=O)c1ccc(-c2nc(-c3ccc(F)cc3)c(-c3ccncc3)[nH]2)cc1 (stereo not given) | % | 83.1 |

Using the record for Cc1ccc(NC(=O)c2ccc(CN3CCN(C)CC3)cc2)cc1Nc1nc(-c2cccnc2)cs1 , report its residual activity.
99.7

Consider next the molecule COc1cc2nccc(Oc3ccc(NC(=S)NC(=O)c4ccccc4C)cc3)c2cc1OC in the same way.
90.4

Consider next the molecule NC(=O)c1ccc(N(C(N)=O)c2c(F)cccc2F)nc1-c1ccc(F)cc1F in the same way.
79.9

Consider next the molecule Oc1ccc(-c2nc(-c3ccc(F)cc3)c(-c3ccncc3)[nH]2)cc1 in the same way.
86.1

Consider next the molecule CCN1/C(=C/C(C)=O)Sc2ccc(OC)cc21 in the same way.
95.8

Consider next the molecule CC(C)(C)c1nc2c3ccc(F)cc3c3c(=O)[nH]ccc3c2[nH]1 in the same way.
96

Consider next the molecule Nc1nc(Nc2ccc(S(N)(=O)=O)cc2)nn1C(=O)c1c(F)cccc1F in the same way.
68.7

====

subject_of_test: CAMK1 (human)
run_description: radiometric filter-binding kinase assay, Kinase HotSpot
details: compound 0.5 µM; ATP 10 µM
Parameter residual activity: see the listing below.
// units = %; emit number, no label

Sample records with residual activity:
| compound | numeric_value |
| --- | --- |
| CC(C)(C)c1nc2c3ccc(F)cc3c3c(=O)[nH]ccc3c2[nH]1 | 79.3 |
| O=C1Nc2cc(Br)ccc2/C1=C1/Nc2ccccc2/C1=N\O | 96 |
| COc1cc2ncnc(Nc3ccc(F)c(Cl)c3)c2cc1OCCCN1CCOCC1 | 102 |

Using the record for Nc1nc(Nc2ccc(S(N)(=O)=O)cc2)nn1C(=O)c1c(F)cccc1F , report its residual activity.
90.4

Consider next the compound CCN1/C(=C/C(C)=O)Sc2ccc(OC)cc21 in the same way.
88.5

Consider next the compound Cc1cc2ncc(-c3ccccc3)nc2cc1C in the same way.
96.2

Consider next the compound NC(=O)c1ccc(N(C(N)=O)c2c(F)cccc2F)nc1-c1ccc(F)cc1F in the same way.
98.1

Consider next the compound Oc1ccc(-c2nc(-c3ccc(F)cc3)c(-c3ccncc3)[nH]2)cc1 in the same way.
108

Consider next the compound CC(C)[C@H](CO)Nc1nc(Nc2cccc(Cl)c2)c2ncn(C(C)C)c2n1 in the same way.
110

Consider next the compound CS(=O)c1ccc(-c2nc(-c3ccc(F)cc3)c(-c3ccncc3)[nH]2)cc1 (stereo not given) in the same way.
106

====

subject_of_test: UniProt:Q06187
Sequence (Q06187 whole entry, looked up): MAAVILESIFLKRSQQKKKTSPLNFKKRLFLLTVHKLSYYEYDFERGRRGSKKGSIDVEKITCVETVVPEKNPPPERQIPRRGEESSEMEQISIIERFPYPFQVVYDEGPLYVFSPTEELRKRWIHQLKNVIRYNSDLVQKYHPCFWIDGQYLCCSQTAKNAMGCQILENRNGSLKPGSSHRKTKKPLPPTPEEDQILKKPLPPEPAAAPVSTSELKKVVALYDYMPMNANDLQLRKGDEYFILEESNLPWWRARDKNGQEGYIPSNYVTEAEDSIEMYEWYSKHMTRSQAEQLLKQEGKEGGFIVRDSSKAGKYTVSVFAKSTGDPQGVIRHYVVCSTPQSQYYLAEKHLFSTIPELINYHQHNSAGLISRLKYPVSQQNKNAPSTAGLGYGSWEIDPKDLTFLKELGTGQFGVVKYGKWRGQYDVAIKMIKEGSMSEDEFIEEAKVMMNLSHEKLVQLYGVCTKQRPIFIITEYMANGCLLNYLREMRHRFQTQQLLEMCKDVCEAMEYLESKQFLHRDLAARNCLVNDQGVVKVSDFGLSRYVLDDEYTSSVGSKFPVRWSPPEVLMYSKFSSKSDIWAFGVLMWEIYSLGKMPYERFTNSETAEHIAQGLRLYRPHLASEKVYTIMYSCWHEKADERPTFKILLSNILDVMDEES
run_description: radiometric filter-binding kinase assay, Kinase HotSpot
details: compound 0.5 µM; ATP 10 µM
quantity: residual activity (%)
// units = %; emit number, no label

| smiles_entry | quantity | unit_info | numeric_value |
| --- | --- | --- | --- |
| Cc1ccc(NC(=O)c2ccc(CN3CCN(C)CC3)cc2)cc1Nc1nc(-c2cccnc2)cs1 | residual activity | % | 99.6 |

Using the record for COc1cc2nccc(Oc3ccc(NC(=S)NC(=O)c4ccccc4C)cc3)c2cc1OC , report its residual activity.
28.4

Consider next the compound O=c1cc(-c2cccc3c2Sc2ccccc2S3)oc(N2CCOCC2)c1 in the same way.
104

Consider next the compound CC(C)n1cnc2c(Nc3cccc(Cl)c3)nc(NCCO)nc21 in the same way.
86.3

Consider next the compound O=C(Nc1ccc(Cl)cc1)c1ccccc1NCc1ccncc1 in the same way.
98.9
